system: 406 cancer cell lines, 73 blood tumor cell lines and 333 solid tumor cell lines; assay: OmniScreen drug efficacy on cancer cell lines, fitted area under curve (AUC) of dose-response; assay type: cell-based; conditions: Homo sapiens, AN3-CA, AN3 CA, Uterus
outcomeMeasure: IC50 (µM)
Value expressed in µM; do not type the unit.

Req: Would you kindly share the measured IC50 for Cc1nn(-c2nc(-c3ccc(C(F)(F)F)cc3)c(SC(C)C)s2)c(C(=O)O)c1-c1cccc(F)c1 [Compound A197] ?
Resp: 45.6

====

system: LS 174T; experiment: Cell viability, CellTiter-Glo, 96 h: LS 174T; format: cell-based; details: Homo sapiens, LS174T, Cell No. 406, read-out: Absolute IC50
outcomeMeasure: IC50

Req: # IC50 lookup, item `Cc1nn(-c2nc(-c3ccc(C(F)(F)F)cc3)c(SC(C)C)s2)c(C(=O)O)c1-c1cccc(F)c1`
Resp: > 30 µM

====

system: 407 cancer cell lines; assay: Cell viability of cancer cell lines (IC50), CellTiter-Glo Viability Assay, 96 h; type: cell-based; settings: Homo sapiens, RKO; read-out: Absolute IC50
outcomeMeasure: IC50 (µM)
Lab book: enter the figure in µM, no units written.

Req: May I ask what IC50 has been recorded for Cc1nn(-c2nc(-c3ccc(C(F)(F)F)cc3)c(SC(C)C)s2)c(C(=O)O)c1-c1cccc(F)c1 [Compound A197] ?
Resp: 23.6

====

system: 407 cancer cell lines; test: Cell viability of cancer cell lines (IC50), CellTiter-Glo Viability Assay, 96 h; type: cell-based; details: Homo sapiens, Caov-3, 96 h, Caov-3 cells, 96 h; read-out: Absolute IC50
outcomeMeasure: IC50

Req: Could you tell me which IC50 is on file for `Cc1nn(-c2nc(-c3ccc(C(F)(F)F)cc3)c(SC(C)C)s2)c(C(=O)O)c1-c1cccc(F)c1` ?
Resp: > 30 µM

====

test system: 407 cancer cell lines; assay: Cell viability of cancer cell lines (IC50), CellTiter-Glo Viability Assay, 96 h; assay type: cell-based; conditions: A875 cells, 96 h; read-out: Absolute IC50
outcomeMeasure: pIC50
Reminder that pIC50 is minus the log10 of a molar concentration.

Req: What does the record list as pIC50 for N.N.[Cl][Pt][Cl] [Cisplatin, reference compound] ?
Resp: 5.73

====

tested on: 407 cancer cell lines; experiment: Cell viability of cancer cell lines (IC50), CellTiter-Glo Viability Assay, 96 h; type: cell-based; details: MOLM-13 cells, 96 h; read-out: Absolute IC50
outcomeMeasure: IC50 (nM)
Answer format: numeric, nM implied, no suffix.

Req: Form: Entry = N.N.[Cl][Pt][Cl] [Cisplatin, reference compound] | System = 407 cancer cell lines | IC50 = ____
Resp: 780

====

system: 407 cancer cell lines; assay: Cell viability of cancer cell lines (IC50), CellTiter-Glo Viability Assay, 96 h; assay type: cell-based; conditions: NCI-H508 cells, 96 h; read-out: Absolute IC50
outcomeMeasure: IC50 (µM)
Report the figure in µM without appending any unit label.

Req: # query: IC50 of entry N.N.[Cl][Pt][Cl] [Cisplatin, reference compound]
Resp: 8.02

====

tested on: 407 cancer cell lines; test: Cell viability of cancer cell lines (IC50), CellTiter-Glo Viability Assay, 96 h; format: cell-based; details: Homo sapiens, SNU-423, 96 h, SNU-423 cells, 96 h; read-out: Absolute IC50
outcomeMeasure: IC50

Req: Requested field: IC50. Item: `Cc1nn(-c2nc(-c3ccc(C(F)(F)F)cc3)c(SC(C)C)s2)c(C(=O)O)c1-c1cccc(F)c1`
Resp: > 30 µM
